# Recorded conditions: in isopropanol, 303.15 K
Measurement kind: solubility (mole fraction)
Respond with the number and no other words.

Problem: Recorded solubility (mole fraction) of `Nc1ccc(Cc2ccc(N)cc2)cc1` , please.
Solution: 0.0178

* * *

# Recorded conditions: in benzene, 308.15 K
Measurement kind: solubility (mole fraction)
Respond with the number and no other words.

Problem: Recorded solubility (mole fraction) of `Nc1ccc(Cc2ccc(N)cc2)cc1` , please.
Solution: 0.0499

* * *

# Recorded conditions: in benzene, 293.15 K
Measurement kind: solubility (mole fraction)
Respond with the number and no other words.

Problem: Recorded solubility (mole fraction) of `Nc1ccc(Cc2ccc(N)cc2)cc1` , please.
Solution: 0.0207

Reference for the values: BigSolDB 2.1
